Reported Percent Effect values for a set of compounds
# Test system: Wolbachia pipientis
# assay.remarks: Anti-Wolbachia Cell-Based Screen
# Type: functional
# Set-up: scale not given: in the data most compounds retested in dose-response had high values
# test.settings: 5 µM
The whole screen tested about 48,000 compounds, of which about 13,000 (27%) showed an effect of 50% or more. This is one part of the list.
The reply should contain only the number, in %.

1) CC(NC(=O)c1cccs1)C(=O)NCc1cccnc1N1CCCCC1 (stereo unspecified)	-0.6319
2) O=C(NCc1ccccn1)Nc1ccc2[nH]nnc2c1	-4.844
3) O=C(NCc1cccnc1N1CCCC(O)C1)c1ccc2[nH]nnc2c1 (stereo unspecified)	86.94
4) O=C(NCc1cccnc1N1CCCCC1)c1ccc2c(c1)OCO2	108.4
5) Cc1nccn1-c1ncccc1CNC(=O)c1ccc(O)nc1	-1.557

Please turn your attention to the following entry.
Write down measured Percent Effect (Wolbachia pipientis) for this compound. `O=C(NCc1cccnc1N1CCCCC1)c1ccc2cc[nH]c2c1`
88.22
